- ASSAY_REMARKS: TRM-201-PK-102 single-dose four-period crossover pharmacokinetic study, fasted healthy subjects
- Type: in vivo, human
- REPORTED_CONDITIONS: human, plasma, oral, 12.5 mg, 102 study only, read-out: arithmetic mean Cmax

{"columns": ["SMILES_STRUCTURE", "UNIT_INFO", "Cmax"],
 "data": [
  ["CS(=O)(=O)c1ccc(C2=C(c3ccccc3)C(=O)OC2)cc1", "ng/mL", 151]
]}

---

- ASSAY_REMARKS: TRM-201-PK-102 single-dose four-period crossover pharmacokinetic study, fasted healthy subjects
- Type: in vivo, human
- REPORTED_CONDITIONS: human, plasma, oral, 25 mg, 102 study, Black or African-American subjects, read-out: arithmetic mean Cmax

{"columns": ["MOLECULE", "UNIT_INFO", "Cmax"],
 "data": [
  ["CS(=O)(=O)c1ccc(C2=C(c3ccccc3)C(=O)OC2)cc1 [TRM-201]", "ng/mL", 340]
]}

---

- ASSAY_REMARKS: TRM-201-PK-102 single-dose four-period crossover pharmacokinetic study, fasted healthy subjects
- Assay type: in vivo, human
- REPORTED_CONDITIONS: human, plasma, oral, 12.5 mg, 102 study, Hispanic or Latino subjects, read-out: geometric mean AUC0-∞
MEASURED_QUANTITY: AUC(0-inf)

{"columns": ["MOLECULE", "MEASURED_QUANTITY", "MEASURED"],
 "data": [
  ["CS(=O)(=O)c1ccc(C2=C(c3ccccc3)C(=O)OC2)cc1 [TRM-201]", "AUC(0-inf)", "2090 ng·h/mL"]
]}

---

- ASSAY_REMARKS: 101 and 102 PK studies combined (fasted)
- Assay type: in vivo
- REPORTED_CONDITIONS: human, plasma, oral, 12.5 mg, 101 and 102 studies (FIG. 47), read-out: arithmetic mean Cmax
- Excerpt: The primary analysis model for data from this trial included data from this trial and that from the 25-mg dose from TRM-201-PK-101 (fasted results only), which were combined via mixed model repeated measures analysis (MMRM) in order to maximize the precision of the estimates. […] The subject effect data expected for this study was simulated from the back-calculated variance of the between-subject mean effect (Var (between-subject-mean)=SDbetween^2−SDwithin^2). […]

{"columns": ["SMILES_STRUCTURE", "UNIT_INFO", "Cmax"],
 "data": [
  ["CS(=O)(=O)c1ccc(C2=C(c3ccccc3)C(=O)OC2)cc1", "ng/mL", 151]
]}

---

- ASSAY_REMARKS: TRM-201-PK-102 single-dose four-period crossover pharmacokinetic study, fasted healthy subjects
- Format: in vivo, human
- REPORTED_CONDITIONS: male, human, plasma, oral, 20 mg, 102 study, males, read-out: geometric mean AUC0-∞

{"columns": ["SMILES_STRUCTURE", "AUC(0-inf) (ng·h/mL)"],
 "data": [
  ["CS(=O)(=O)c1ccc(C2=C(c3ccccc3)C(=O)OC2)cc1", 2940]
]}

---

- ASSAY_REMARKS: TRM-201-PK-102 single-dose four-period crossover pharmacokinetic study, fasted healthy subjects
- Assay type: in vivo, human
- REPORTED_CONDITIONS: human, plasma, oral, 20 mg, 102 study, 53-60 years, read-out: geometric mean Cmax

{"columns": ["SMILES_STRUCTURE", "Cmax"],
 "data": [
  ["CS(=O)(=O)c1ccc(C2=C(c3ccccc3)C(=O)OC2)cc1", "249 ng/mL"]
]}

---

- ASSAY_REMARKS: TRM-201-PK-102 single-dose four-period crossover pharmacokinetic study, fasted healthy subjects
- Assay type: in vivo, human
- REPORTED_CONDITIONS: human, plasma, oral, 12.5 mg, 102 study only, read-out: geometric mean AUC0-∞

{"columns": ["SMILES_STRUCTURE", "AUC(0-inf), ng·h/mL"],
 "data": [
  ["CS(=O)(=O)c1ccc(C2=C(c3ccccc3)C(=O)OC2)cc1", 1880]
]}

---

- ASSAY_REMARKS: TRM-201-PK-102 single-dose four-period crossover pharmacokinetic study, fasted healthy subjects
- Type: in vivo, human
- REPORTED_CONDITIONS: human, plasma, oral, 25 mg, 102 study, body weight 77.1-90 kg, read-out: arithmetic mean Cmax
MEASURED_QUANTITY: Cmax (ng/mL)

{"columns": ["SMILES_STRUCTURE", "MEASURED"],
 "data": [
  ["CS(=O)(=O)c1ccc(C2=C(c3ccccc3)C(=O)OC2)cc1", 299]
]}

---

- ASSAY_REMARKS: TRM-201-PK-102 single-dose four-period crossover pharmacokinetic study, fasted healthy subjects
- Type: in vivo, human
- REPORTED_CONDITIONS: human, plasma, oral, 12.5 mg, 102 study, 53-60 years, read-out: arithmetic mean AUC0-∞
MEASURED_QUANTITY: AUC(0-inf) (ng·h/mL)

{"columns": ["SMILES_STRUCTURE", "UNIT_INFO", "MEASURED"],
 "data": [
  ["CS(=O)(=O)c1ccc(C2=C(c3ccccc3)C(=O)OC2)cc1", "ng·h/mL", 2270]
]}

---

- ASSAY_REMARKS: TRM-201-PK-102 single-dose four-period crossover pharmacokinetic study, fasted healthy subjects
- Type: in vivo, human
- REPORTED_CONDITIONS: human, plasma, oral, 12.5 mg, 102 study, body weight 47-70 kg, read-out: arithmetic mean AUC0-∞
MEASURED_QUANTITY: AUC(0-inf) (ng·h/mL)

{"columns": ["SMILES_STRUCTURE", "MEASURED"],
 "data": [
  ["CS(=O)(=O)c1ccc(C2=C(c3ccccc3)C(=O)OC2)cc1", 1850]
]}

---

- ASSAY_REMARKS: TRM-201-PK-102 single-dose four-period crossover pharmacokinetic study, fasted healthy subjects
- Format: in vivo, human
- REPORTED_CONDITIONS: human, plasma, oral, 20 mg, 102 study, non-Hispanic or non-Latino subjects, read-out: arithmetic mean Cmax
MEASURED_QUANTITY: Cmax (ng/mL)

{"columns": ["SMILES_STRUCTURE", "MEASURED"],
 "data": [
  ["CS(=O)(=O)c1ccc(C2=C(c3ccccc3)C(=O)OC2)cc1", 272]
]}

---

- ASSAY_REMARKS: TRM-201-PK-102 single-dose four-period crossover pharmacokinetic study, fasted healthy subjects
- Format: in vivo, human
- REPORTED_CONDITIONS: human, plasma, oral, 17.5 mg, 102 study, 18-40 years, read-out: geometric mean AUC0-∞

{"columns": ["SMILES_STRUCTURE", "AUC(0-inf) (ng·h/mL)"],
 "data": [
  ["CS(=O)(=O)c1ccc(C2=C(c3ccccc3)C(=O)OC2)cc1", 2750]
]}

---

- ASSAY_REMARKS: TRM-201-PK-102 single-dose four-period crossover pharmacokinetic study, fasted healthy subjects
- Type: in vivo, human
- REPORTED_CONDITIONS: human, plasma, oral, 20 mg, 102 study, White subjects, read-out: geometric mean AUC0-∞
MEASURED_QUANTITY: AUC(0-inf)

{"columns": ["COMPOUND", "MEASURED"],
 "data": [
  ["CS(=O)(=O)c1ccc(C2=C(c3ccccc3)C(=O)OC2)cc1 [TRM-201]", "3610 ng·h/mL"]
]}

---

- ASSAY_REMARKS: TRM-201-PK-102 single-dose four-period crossover pharmacokinetic study, fasted healthy subjects
- Assay type: in vivo, human
- REPORTED_CONDITIONS: human, plasma, oral, 20 mg, 102 study, non-Hispanic or non-Latino subjects, read-out: geometric mean AUC0-∞

{"columns": ["SMILES_STRUCTURE", "AUC(0-inf) / ng·h/mL"],
 "data": [
  ["CS(=O)(=O)c1ccc(C2=C(c3ccccc3)C(=O)OC2)cc1", 3470]
]}

---

- ASSAY_REMARKS: TRM-201-PK-102 single-dose four-period crossover pharmacokinetic study, fasted healthy subjects
- Format: in vivo, human
- REPORTED_CONDITIONS: human, plasma, oral, 12.5 mg, 102 study, 53-60 years, read-out: geometric mean Cmax
MEASURED_QUANTITY: Cmax (ng/mL)

{"columns": ["SMILES_STRUCTURE", "UNIT_INFO", "MEASURED"],
 "data": [
  ["CS(=O)(=O)c1ccc(C2=C(c3ccccc3)C(=O)OC2)cc1", "ng/mL", 143]
]}

---

- ASSAY_REMARKS: TRM-201-PK-102 single-dose four-period crossover pharmacokinetic study, fasted healthy subjects
- Format: in vivo, human
- REPORTED_CONDITIONS: human, plasma, oral, 25 mg, 102 study, body weight 70.1-77 kg, read-out: geometric mean Cmax

{"columns": ["SMILES_STRUCTURE", "Cmax [ng/mL]"],
 "data": [
  ["CS(=O)(=O)c1ccc(C2=C(c3ccccc3)C(=O)OC2)cc1", 368]
]}

Values from patent US10945992B1
